Recorded measurements of pIC50, one per entry
# tgt: Neuraminidase (Influenza A virus)
# Sequence (B4URF0 whole entry): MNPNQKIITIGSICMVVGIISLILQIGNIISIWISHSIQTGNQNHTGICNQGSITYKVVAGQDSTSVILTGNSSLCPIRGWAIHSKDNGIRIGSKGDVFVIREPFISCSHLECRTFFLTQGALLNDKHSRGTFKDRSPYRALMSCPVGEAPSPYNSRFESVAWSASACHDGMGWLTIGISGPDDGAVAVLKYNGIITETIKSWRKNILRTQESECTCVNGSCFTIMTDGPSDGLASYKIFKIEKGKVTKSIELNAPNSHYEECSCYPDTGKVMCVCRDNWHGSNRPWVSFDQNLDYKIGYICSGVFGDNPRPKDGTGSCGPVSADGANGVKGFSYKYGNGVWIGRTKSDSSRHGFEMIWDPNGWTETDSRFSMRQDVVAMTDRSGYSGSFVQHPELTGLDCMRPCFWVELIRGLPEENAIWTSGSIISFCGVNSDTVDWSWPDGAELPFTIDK
# Parameters: species or system Influenza B virus
pIC50: −log10 of the molar value.

Consider the following illustrative entries.
| compound | result |
| --- | --- |
| C[C@@H]1O[C@@H](OC[C@H]2O[C@@H](Oc3c(-c4ccc(O)c(O)c4)oc4cc(O)cc(O)c4c3=O)[C@H](O)[C@@H](O)[C@@H]2O)[C@H](O)[C@H](O)[C@H]1O [RUTIN] | < 4.00 |
| O=C1C[C@@H](c2ccc(O[C@@H]3O[C@H](CO)[C@@H](O)[C@H](O)[C@H]3O)cc2)Oc2cc(O)ccc21 [LIQUIRITIN] | < 4.00 |

Read the next record carefully.
In: What pIC50 value was documented for this compound, COc1ccc([C@@H]2CC(=O)c3c(O)cc(O[C@@H]4O[C@H](CO[C@@H]5O[C@@H](C)[C@H](O)[C@@H](O)[C@H]5O)[C@@H](O)[C@H](O)[C@H]4O)cc3O2)cc1O [HESPERIDIN] ?
Out: < 4.00
